Overview of recorded IC50 for various molecules
target: human type 1 glycine transporter (GlyT1) (Homo sapiens, UniProt P48067); construct: T98G cells (glioma cells) expressing human type 1 glycine transporter (GlyT1) were used; endogenous in cells; host or cells: T98G cells (human glioma cells); assay: Glycine uptake inhibition experiment ([3H] glycine uptake in T98G cells expressing GlyT1); format: cell-based; details: glycine uptake inhibition
Sequence (P48067 whole entry): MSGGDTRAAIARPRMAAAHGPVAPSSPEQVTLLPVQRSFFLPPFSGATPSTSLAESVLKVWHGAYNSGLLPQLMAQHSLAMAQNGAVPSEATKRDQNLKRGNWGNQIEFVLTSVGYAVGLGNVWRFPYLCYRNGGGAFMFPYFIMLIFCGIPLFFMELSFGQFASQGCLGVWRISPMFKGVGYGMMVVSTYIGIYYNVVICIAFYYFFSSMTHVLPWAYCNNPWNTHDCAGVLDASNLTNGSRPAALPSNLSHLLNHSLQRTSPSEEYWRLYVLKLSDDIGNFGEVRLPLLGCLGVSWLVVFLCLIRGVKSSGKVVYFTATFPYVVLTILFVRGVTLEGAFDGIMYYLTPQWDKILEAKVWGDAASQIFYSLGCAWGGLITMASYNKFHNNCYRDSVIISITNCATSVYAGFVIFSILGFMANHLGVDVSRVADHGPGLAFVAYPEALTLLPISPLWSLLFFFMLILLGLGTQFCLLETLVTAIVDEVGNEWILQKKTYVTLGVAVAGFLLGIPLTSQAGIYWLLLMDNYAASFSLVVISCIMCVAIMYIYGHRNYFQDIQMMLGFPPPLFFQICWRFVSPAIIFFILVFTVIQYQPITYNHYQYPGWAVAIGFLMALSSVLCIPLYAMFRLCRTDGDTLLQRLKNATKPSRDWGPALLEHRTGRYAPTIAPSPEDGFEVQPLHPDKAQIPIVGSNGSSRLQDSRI
Provide the reading as a plain figure in µM.

O=C1N(Cc2ccnc(Cl)c2)c2cccc([C@@H](O)C(F)(F)F)c2C1(F)F [Compound 32] :: 0.038
C[C@H](O)c1cccc2c1C(F)(F)C(=O)N2Cc1cc2ccoc2cn1 [Compound 125] :: 0.13
C[C@H](O)c1cccc2c1C(F)(F)C(=O)N2Cc1nc2ncccc2c(=O)n1C [Compound 108] :: 0.24
O=C1N(Cc2ccnc(F)c2)c2cccc(C(O)C(F)F)c2C1(F)F (centres unmarked) [Compound 150] :: 0.31
O=C1N(Cc2cccc(C(F)F)n2)c2cccc(C(O)C(F)F)c2C1(F)F (single isomer, unassigned) [Compound 153] :: 0.13
C[C@H](O)c1cccc2c1C(F)(F)C(=O)N2Cc1cccc(-n2nccn2)n1 [Compound 44] :: 0.068
O=C1N(Cc2ccnc(F)c2)c2cccc([C@@H](O)C(F)(F)F)c2C1(F)F [Compound 149] :: 0.2

Now for a further molecule.
The recorded IC50 for entry C[C@H](O)c1cccc2c1C(F)(F)C(=O)N2Cc1nc2ccccc2[nH]1 [Compound 88] equals 0.087

The values you see were collected from patent US20160159814A1.
